measurementProtocol: in vivo
Set-up: species or system cattle
experimentalSetup: both sexes, bovine, im, 2.2 mg/kg
measure: AUC(0-inf) (ng·h/mL)
# unit: ng·h/mL | format: bare number

AUC(0-inf) reading for Cc1c(Nc2ncccc2C(=O)O)cccc1C(F)(F)F : 10500

----------
measurementProtocol: in vivo
Parameters: species or system cattle
experimentalSetup: both sexes, bovine, iv, 2.2 mg/kg
measure: AUC(0-inf) (ng·h/mL)
Respond numerically; units are ng·h/mL and should not be typed.

For record Cc1c(Nc2ncccc2C(=O)O)cccc1C(F)(F)F the listed AUC(0-inf) is 13600

----------
measurementProtocol: in vivo
Parameters: species or system cattle
experimentalSetup: both sexes, bovine, im, 2.2 mg/kg
measure: Cmax (ng/mL)
Kindly answer with a numeric value in ng/mL, unit omitted.

Consider Cc1c(Nc2ncccc2C(=O)O)cccc1C(F)(F)F . Its measured Cmax is 3240

----------
measurementProtocol: in vivo
Parameters: species or system cattle
experimentalSetup: both sexes, bovine, sc, 2.2 mg/kg
measure: Cmax (ng/mL)
Give just the numeric value; ng/mL need not be written.

Form field Cmax, entry Cc1c(Nc2ncccc2C(=O)O)cccc1C(F)(F)F : 2860
